The measurements presented in this section are drawn from patent US3960877A.

test system: Yellow Rocket; experiment: Preemergence herbicidal activity, % control of plant growth; format: in vivo; conditions: pre-emergence, 504 h, 16 lb/acre, about 3 weeks
measured-quantity: pest or weed control at 17933.6 g/ha (%)
Numeric answer only, unit % assumed.

I have this compound here, O=c1[nH]c2cccnc2c(=O)n1C1CCCCC1 , and I need its recorded pest or weed control at 17933.6 g/ha. 100

I have this compound here, CCCCn1c(=O)[nH]c2cccnc2c1=O , and I need its recorded pest or weed control at 17933.6 g/ha. 100

I have this compound here, O=c1[nH]c(=O)c2ncccc2[nH]1 [pyrido[3,2-d]pyrimidine-2,4(1H,3H)-dione, reference compound] , and I need its recorded pest or weed control at 17933.6 g/ha. 0

I have this compound here, C=CCn1c(=O)[nH]c2cccnc2c1=O , and I need its recorded pest or weed control at 17933.6 g/ha. 100

I have this compound here, CCn1c(=O)[nH]c2ncccc2c1=O , and I need its recorded pest or weed control at 17933.6 g/ha. 80

I have this compound here, CCC(C)n1c(=O)[nH]c2cccnc2c1=O (stereo not drawn) , and I need its recorded pest or weed control at 17933.6 g/ha. 100

I have this compound here, O=c1[nH]c2cccnc2c(=O)n1Cc1ccccc1 , and I need its recorded pest or weed control at 17933.6 g/ha. 90

I have this compound here, CCCn1c(=O)[nH]c2cccnc2c1=O , and I need its recorded pest or weed control at 17933.6 g/ha. 100

I have this compound here, O=c1[nH]c2nccnc2c(=O)n1C1CCCCC1 [Lumazine, 3-cyclohexyl] , and I need its recorded pest or weed control at 17933.6 g/ha. 100

I have this compound here, CCCCn1c(=O)[nH]c2nccnc2c1=O [Lumazine, 3-butyl] , and I need its recorded pest or weed control at 17933.6 g/ha. 0

I have this compound here, O=c1[nH]c2nccnc2c(=O)n1C1CCCCCCC1 [Lumazine, 3-cyclooctyl] , and I need its recorded pest or weed control at 17933.6 g/ha. 100

I have this compound here, O=c1[nH]c2cccnc2c(=O)n1C1CC1 , and I need its recorded pest or weed control at 17933.6 g/ha. 100

I have this compound here, CC(C)n1c(=O)[nH]c2nccnc2c1=O [Lumazine, 3-isopropyl] , and I need its recorded pest or weed control at 17933.6 g/ha. 100

I have this compound here, CCCCC(CC)Cn1c(=O)[nH]c2cccnc2c1=O (stereo not drawn) , and I need its recorded pest or weed control at 17933.6 g/ha. 90

I have this compound here, CCn1c(=O)[nH]c2cccnc2c1=O , and I need its recorded pest or weed control at 17933.6 g/ha. 100

I have this compound here, O=c1[nH]c2cccnc2c(=O)n1C1CCCCCCC1 , and I need its recorded pest or weed control at 17933.6 g/ha. 100

I have this compound here, CCC(C)n1c(=O)[nH]c2nccnc2c1=O (stereo not drawn) [Lumazine, 3-sec-butyl] , and I need its recorded pest or weed control at 17933.6 g/ha. 100

I have this compound here, CC(C)n1c(=O)[nH]c2cccnc2c1=O , and I need its recorded pest or weed control at 17933.6 g/ha. 100

###

Please provide measured pest or weed control at 17933.6 g/ha for the entries that follow.
system: Lambsquarters; assay: Preemergence herbicidal activity, % control of plant growth; assay type: in vivo; details: Chenopodium album, pre-emergence, 504 h, 16 lb/acre, about 3 weeks
Please append the unit to your numeric answer.

# query: pest or weed control at 17933.6 g/ha | item CC(C)n1c(=O)[nH]c2nccnc2c1=O [Lumazine, 3-isopropyl] | system: Lambsquarters 100%

# query: pest or weed control at 17933.6 g/ha | item CCn1c(=O)[nH]c2cccnc2c1=O | system: Lambsquarters 100%

# query: pest or weed control at 17933.6 g/ha | item CCC(C)n1c(=O)[nH]c2nccnc2c1=O (centres unmarked) [Lumazine, 3-sec-butyl] | system: Lambsquarters 100%

# query: pest or weed control at 17933.6 g/ha | item O=c1[nH]c(=O)c2ncccc2[nH]1 [pyrido[3,2-d]pyrimidine-2,4(1H,3H)-dione, reference compound] | system: Lambsquarters 0%

# query: pest or weed control at 17933.6 g/ha | item CCCCC(CC)Cn1c(=O)[nH]c2cccnc2c1=O (centres unmarked) | system: Lambsquarters 30%

###

tested on: Cheatgrass; experiment: Preemergence herbicidal activity, % control of plant growth; type: in vivo; conditions: Bromus tectorum, pre-emergence, 504 h, 16 lb/acre, about 3 weeks
Please provide measured pest or weed control at 17933.6 g/ha for the entries that follow.

I have this compound here, O=c1[nH]c2cccnc2c(=O)n1C1CCCCCCC1 , and I need its recorded pest or weed control at 17933.6 g/ha. 100%

I have this compound here, C=CCn1c(=O)[nH]c2cccnc2c1=O , and I need its recorded pest or weed control at 17933.6 g/ha. 100%

I have this compound here, CCCCC(CC)Cn1c(=O)[nH]c2cccnc2c1=O (centres unmarked) , and I need its recorded pest or weed control at 17933.6 g/ha. 0%

I have this compound here, CCC(C)n1c(=O)[nH]c2cccnc2c1=O (centres unmarked) , and I need its recorded pest or weed control at 17933.6 g/ha. 100%

I have this compound here, O=c1[nH]c2cccnc2c(=O)n1Cc1ccccc1 , and I need its recorded pest or weed control at 17933.6 g/ha. 100%

I have this compound here, CCC(C)n1c(=O)[nH]c2nccnc2c1=O (centres unmarked) [Lumazine, 3-sec-butyl] , and I need its recorded pest or weed control at 17933.6 g/ha. 90%

I have this compound here, CCn1c(=O)[nH]c2cccnc2c1=O , and I need its recorded pest or weed control at 17933.6 g/ha. 100%

I have this compound here, CCCCn1c(=O)[nH]c2cccnc2c1=O , and I need its recorded pest or weed control at 17933.6 g/ha. 100%

I have this compound here, CC(C)n1c(=O)[nH]c2nccnc2c1=O [Lumazine, 3-isopropyl] , and I need its recorded pest or weed control at 17933.6 g/ha. 10%

I have this compound here, O=c1[nH]c(=O)c2ncccc2[nH]1 [pyrido[3,2-d]pyrimidine-2,4(1H,3H)-dione, reference compound] , and I need its recorded pest or weed control at 17933.6 g/ha. 0%

I have this compound here, O=c1[nH]c2cccnc2c(=O)n1C1CCCCC1 , and I need its recorded pest or weed control at 17933.6 g/ha. 100%

I have this compound here, CCCn1c(=O)[nH]c2cccnc2c1=O , and I need its recorded pest or weed control at 17933.6 g/ha. 100%

I have this compound here, O=c1[nH]c2nccnc2c(=O)n1C1CCCCC1 [Lumazine, 3-cyclohexyl] , and I need its recorded pest or weed control at 17933.6 g/ha. 10%

I have this compound here, O=c1[nH]c2cccnc2c(=O)n1C1CC1 , and I need its recorded pest or weed control at 17933.6 g/ha. 100%

I have this compound here, O=c1[nH]c2nccnc2c(=O)n1C1CCCCCCC1 [Lumazine, 3-cyclooctyl] , and I need its recorded pest or weed control at 17933.6 g/ha. 100%

I have this compound here, CC(C)n1c(=O)[nH]c2cccnc2c1=O , and I need its recorded pest or weed control at 17933.6 g/ha. 100%

I have this compound here, CCCCn1c(=O)[nH]c2nccnc2c1=O [Lumazine, 3-butyl] , and I need its recorded pest or weed control at 17933.6 g/ha. 0%

###

Please provide measured pest or weed control at 8966.8 g/ha for the entries that follow.
test system: Foxtail; test: Postemergence herbicidal activity, % control of plant growth; format: in vivo; details: Setaria, post-emergence, 264 h, 8 lb/acre, about 11 days
Numeric answer only, unit % assumed.

I have this compound here, O=c1[nH]c2cccnc2c(=O)n1Cc1ccccc1 , and I need its recorded pest or weed control at 8966.8 g/ha. 0

I have this compound here, O=c1[nH]c2cccnc2c(=O)n1C1CCCCC1 , and I need its recorded pest or weed control at 8966.8 g/ha. 100

I have this compound here, CCC(C)n1c(=O)[nH]c2nccnc2c1=O (stereo not drawn) [Lumazine, 3-sec-butyl] , and I need its recorded pest or weed control at 8966.8 g/ha. 0

I have this compound here, CCn1c(=O)[nH]c2cccnc2c1=O , and I need its recorded pest or weed control at 8966.8 g/ha. 40

I have this compound here, O=c1[nH]c2cccnc2c(=O)n1C1CCCCCCC1 , and I need its recorded pest or weed control at 8966.8 g/ha. 80

I have this compound here, CC(C)n1c(=O)[nH]c2cccnc2c1=O , and I need its recorded pest or weed control at 8966.8 g/ha. 100

###

Please provide measured pest or weed control at 17933.6 g/ha for the entries that follow.
tested on: Alfalfa; test: Preemergence herbicidal activity, % control of plant growth; format: in vivo; settings: Medicago sativa, pre-emergence, 504 h, 16 lb/acre, about 3 weeks
Numeric answer only, unit % assumed.

I have this compound here, O=c1[nH]c(=O)c2ncccc2[nH]1 [pyrido[3,2-d]pyrimidine-2,4(1H,3H)-dione, reference compound] , and I need its recorded pest or weed control at 17933.6 g/ha. 0

I have this compound here, CC(C)n1c(=O)[nH]c2cccnc2c1=O , and I need its recorded pest or weed control at 17933.6 g/ha. 100

I have this compound here, O=c1[nH]c2cccnc2c(=O)n1C1CC1 , and I need its recorded pest or weed control at 17933.6 g/ha. 100

I have this compound here, CCCCn1c(=O)[nH]c2nccnc2c1=O , and I need its recorded pest or weed control at 17933.6 g/ha. 0

I have this compound here, O=c1[nH]c2nccnc2c(=O)n1C1CCCCC1 , and I need its recorded pest or weed control at 17933.6 g/ha. 100

I have this compound here, CCn1c(=O)[nH]c2cccnc2c1=O , and I need its recorded pest or weed control at 17933.6 g/ha. 100

I have this compound here, CCCCC(CC)Cn1c(=O)[nH]c2cccnc2c1=O (centres unmarked) , and I need its recorded pest or weed control at 17933.6 g/ha. 0

I have this compound here, O=c1[nH]c2nccnc2c(=O)n1C1CCCCCCC1 , and I need its recorded pest or weed control at 17933.6 g/ha. 100

I have this compound here, C=CCn1c(=O)[nH]c2cccnc2c1=O , and I need its recorded pest or weed control at 17933.6 g/ha. 100

I have this compound here, CCCn1c(=O)[nH]c2cccnc2c1=O , and I need its recorded pest or weed control at 17933.6 g/ha. 100

I have this compound here, CCC(C)n1c(=O)[nH]c2cccnc2c1=O (centres unmarked) , and I need its recorded pest or weed control at 17933.6 g/ha. 100

I have this compound here, O=c1[nH]c2cccnc2c(=O)n1Cc1ccccc1 , and I need its recorded pest or weed control at 17933.6 g/ha. 100

I have this compound here, CCC(C)n1c(=O)[nH]c2nccnc2c1=O (centres unmarked) , and I need its recorded pest or weed control at 17933.6 g/ha. 100

I have this compound here, CCCCn1c(=O)[nH]c2cccnc2c1=O , and I need its recorded pest or weed control at 17933.6 g/ha. 100

I have this compound here, O=c1[nH]c2cccnc2c(=O)n1C1CCCCC1 , and I need its recorded pest or weed control at 17933.6 g/ha. 100

I have this compound here, O=c1[nH]c2cccnc2c(=O)n1C1CCCCCCC1 , and I need its recorded pest or weed control at 17933.6 g/ha. 100

I have this compound here, CC(C)n1c(=O)[nH]c2nccnc2c1=O , and I need its recorded pest or weed control at 17933.6 g/ha. 100
